Test system: SK-MEL-5
Assay: NCI tumour cell line growth inhibition, 48 h
Active and inactive are the calls of the source. No stated cut-off is given here; in the data, active = GI50 up to about 1.1 µM and inactive = higher.
// reported GI50 for each item listed

Here's what some known entries look like.
1. CC1(c2nc3ccccc3[nH]2)CCC(CO)C(C)(C)O1 (stereo not drawn): > 100 µM (inactive)
2. CN(C)C=C1C(=O)c2c(Br)sc(Br)c2C1=O: 16.3 µM (inactive)

Here's the next entry for you.
Data request: Give its GI50 value. Item: CCCCCCCCCCCC(=O)OCCOCCOCCOCCOCCOC(=O)CCCCCCCCCCC
Data returned: > 100 µM (inactive)

====

Tested on: BT-549
Test: NCI tumour cell line growth inhibition, 48 h
The source made the active and inactive calls. No stated cut-off is given here; in the data, active = GI50 up to about 1.1 µM and inactive = higher.
Measurement Name: GI50

Here's what some known entries look like.
1) N#Cc1ccnc(C(=O)N2CCCC2C(=O)O)c1 (configuration not stated): > 100 µM (inactive)
2) COC(=O)c1ccc2c(c1)C(NC(C)=O)CCc1cc(OC)c(OC)c(OC)c1-2 (configuration not stated): 0.104 µM (active)
3) O=C(Nc1sccc1S(=O)(=O)c1ccc(Cl)cc1)c1ccc(Cl)cc1: > 100 µM (inactive)

Data request: Give its GI50 value. Item: CS(C)(=O)=N/C=C\C(=O)C(Cl)(Cl)Cl
Data returned: > 100 µM (inactive)

Data request: Give its GI50 value. Item: Cc1n[nH]c(=O)n1/N=C\c1ccccc1
Data returned: > 100 µM (inactive)

Data request: Give its GI50 value. Item: CC(C)(C)c1cc(C(=O)/C=C/c2ccc(C(=O)O)cc2)cc(C(C)(C)C)c1
Data returned: 2.21 µM (inactive)

Data request: Give its GI50 value. Item: O=C1CSC(c2c[nH]c3ccccc23)N1c1cccc([N+](=O)[O-])c1 (configuration not stated)
Data returned: > 100 µM (inactive)

Data request: Give its GI50 value. Item: Cc1cc(S(=O)(=O)Nc2nc(N)n[nH]2)c(Cl)cc1Cl
Data returned: > 10 µM (inactive)

Data request: Give its GI50 value. Item: C[C@@]1(c2ccccc2)O[C@@H]2C[C@H]3[C@@H]4CCC5=CC(=O)C=C[C@]5(C)[C@@]4(F)[C@@H](O)C[C@]3(C)[C@]2(C(=O)CO)O1 [AMCINAFIDE]
Data returned: 18.2 µM (inactive)

====

System: RXF 631
Test: NCI tumour cell line growth inhibition, 48 h
The source made the active and inactive calls. No stated cut-off is given here; in the data, active = GI50 up to about 1.1 µM and inactive = higher.
Measurement Name: GI50

1. O=C(/C=C/c1c(O)ccc2ccccc12)c1ccccc1: > 100 µM (inactive)
2. CC(=O)Nc1ccc(/C=c2\sc3nnc(-c4cccnc4)n3c2=O)cc1: 18.1 µM (inactive)

Here's the next entry for you.
Data request: Give its GI50 value. Item: C[C@H]1CCC2C(CN3CCCCC3)C(=O)OC2[C@]2(C)C(=O)CC(N3CCCCC3)C12O (stereo partly drawn)
Data returned: 1.28 µM (inactive)

====

// reported GI50 for each item listed
Tested on: HCC 2998
Assay: NCI tumour cell line growth inhibition, 48 h
The source made the active and inactive calls. No stated cut-off is given here; in the data, active = GI50 up to about 1.1 µM and inactive = higher.

Here's what some known entries look like.
1) CCNC1=C(NC(=O)c2ccc(OC)cc2)C(=O)c2ccccc2C1=O: 37.5 µM (inactive)
2) CCc1nc2cc(F)ccc2[nH]c1=O: > 100 µM (inactive)

Data request: Give its GI50 value. Item: Brc1ccc(-c2ccc(-c3ccc(Br)s3)s2)s1
Data returned: > 100 µM (inactive)

====

Test system: Malme-3M
Assay: NCI tumour cell line growth inhibition, 48 h
Calls of active or inactive are those of the source. No stated cut-off is given here; in the data, active = GI50 up to about 1.1 µM and inactive = higher.
Respond using exactly one of the listed classes: active, inactive

Worked examples, 2 molecules total:
1. C[N+]1(C)C/C(=C\c2ccncc2)C(=O)/C(=C/c2ccncc2)C1: inactive
2. COc1ccccc1NC(=S)N/N=C/c1ccccn1: active

Data request: Which outcome was assigned to Nc1c(/N=N/c2ccc(-c3ccc(/N=N/c4c(O)ccc5cc(S(=O)(=O)O)cc(S(=O)(=O)O)c45)cc3)cc2)c(S(=O)(=O)O)cc2cc(S(=O)(=O)O)c(/N=N/c3ccccc3)c(O)c12 in this test?
Data returned: inactive

Data request: Which outcome was assigned to COP(=O)(OC)C(Nc1ccc(Cc2ccc(NC(c3ccco3)P(=O)(OC)OC)cc2)cc1)c1ccco1 (stereo not given) in this test?
Data returned: inactive

Data request: Which outcome was assigned to CN(C)C=C1C(=O)c2c(Br)sc(Br)c2C1=O in this test?
Data returned: inactive

====

// reported GI50 for each item listed
Tested on: NCI-H23
Test: NCI tumour cell line growth inhibition, 48 h
Calls of active or inactive are those of the source. Cut-off read from the data, not from the text of the source: active = GI50 up to about 1.1 µM and inactive = higher.

Here's what some known entries look like.
1) Cc1c2cccc-2c(OCCO)cc2c1[nH]c1ccccc12: 2.54 µM (inactive)
2) O=C1C2c3[nH]c4ccccc4c3[C@@H]3CCCCCCCCCCC3C2C(=O)N1c1ccccc1 (stereo not given in full): 17.5 µM (inactive)
3) O=Cc1cccc2ccc3ccccc3c12: 25.1 µM (inactive)

Data request: Please tell me: GI50 of COC(=O)[C@@H](NC(=O)N(Cc1ccccc1)C[C@H](CC(C)C)NC(=O)[C@@H](NC(=O)OC(C)(C)C)C(C)C)C(C)C , system NCI-H23?
Data returned: > 100 µM (inactive)

Data request: Please tell me: GI50 of COc1ccc2[nH]cc(C=C3C(=O)NC(=S)NC3=O)c2c1 , system NCI-H23?
Data returned: 31.2 µM (inactive)

Data request: Please tell me: GI50 of CCOC(=O)c1ncn(CCc2ccc(Cl)cc2)c1C , system NCI-H23?
Data returned: > 100 µM (inactive)

====

Tested on: COLO 205
Test: NCI tumour cell line growth inhibition, 48 h
Calls of active or inactive are those of the source. Cut-off read from the data, not from the text of the source: active = GI50 up to about 1.1 µM and inactive = higher.
Respond using exactly one of the listed classes: True for active, False for inactive

1. COc1ccc2nc3cc([N+](=O)[O-])ccc3c(NNc3ccccc3)c2c1: False
2. CC(C)c1ccc(/C=C(\NC(=O)c2ccccc2)c2nc3ccccc3[nH]2)cc1: False
3. CC(=O)c1c(O)c(C)c(O)c(Cc2c(O)c3c(c(C(=O)/C=C/c4ccccc4)c2O)OC(C)(C)C=C3)c1O [ROTTLERIN]: False
4. COc1ccc(C(CC(=O)c2ccc3c(c2)OCO3)c2c(O)oc3ccccc3c2=O)cc1OC (centres undefined): False
5. COc1cc2c(cc1OC)[C@@H](Nc1ccc(C#N)cc1)C1COC(=O)[C@@H]1C2c1cc(OC)c(O)c(OC)c1 (some centres undefined): False

Moving on to another molecule below.
Data request: Which outcome was assigned to CC(C)NCC(O)c1ccc(O)c2ncccc12 (centres undefined) in this test?
Data returned: False

====

System: NCI-H23
Test: NCI tumour cell line growth inhibition, 48 h
Active and inactive are the calls of the source. Cut-off read from the data, not from the text of the source: active = GI50 up to about 1.1 µM and inactive = higher.
// reported GI50 for each item listed

1. CCOC(=O)C(=O)Nc1ccccc1CC: > 100 µM (inactive)
2. CN(C)c1nc(N)nc(CS)n1: > 100 µM (inactive)

Data request: Give its GI50 value. Item: CO/C(N)=C(C#N)/N=C/c1cccnc1
Data returned: > 100 µM (inactive)

====

System: SF-268
Experiment: NCI tumour cell line growth inhibition, 48 h
The source made the active and inactive calls. Cut-off read from the data, not from the text of the source: active = GI50 up to about 1.1 µM and inactive = higher.
Respond using exactly one of the listed classes: 1 (yes) (active), 0 (no) (inactive)

Worked examples, 2 compounds total:
1) CCC1(OC(=O)CNC)C(=O)OCc2c1cc1n(c2=O)Cc2cc3ccccc3nc2-1 (stereo not drawn): 1 (yes)
2) CCCCC1CC(c2cccc([N+](=O)[O-])c2)=NO1 (stereo not drawn): 0 (no)

Moving on to another compound below.
Data request: Which outcome was assigned to CC(=O)N1OC(C)CC1Nc1ccc(Br)cc1 (stereo not drawn) in this test?
Data returned: 0 (no)

====

Test system: M14
Assay: NCI tumour cell line growth inhibition, 48 h
Calls of active or inactive are those of the source. Cut-off read from the data, not from the text of the source: active = GI50 up to about 1.1 µM and inactive = higher.
// reported GI50 for each item listed

Here's what some known entries look like.
1. COC(=O)C(NC(=O)CNC(=O)CSc1nnc(COc2ccc(Cl)cc2)n1-c1ccccc1)C(C)C (stereo not given): 18.7 µM (inactive)
2. CC1=C(C(=O)Nc2cccc(Cl)c2)C(c2ccc([N+](=O)[O-])cc2)C(C(=O)Nc2cccc(Cl)c2)=C(C)N1: 16.6 µM (inactive)
3. COc1cccc(C2SCC(=O)N2c2ccc(-n3c(-c4ccccc4)nc4ccccc4c3=O)cc2)c1OC (stereo not given): > 100 µM (inactive)
4. C[C@@]1(c2ccccc2)O[C@@H]2C[C@H]3[C@@H]4CCC5=CC(=O)C=C[C@]5(C)[C@@]4(F)[C@@H](O)C[C@]3(C)[C@]2(C(=O)CO)O1 [AMCINAFIDE]: 16.1 µM (inactive)
5. Cc1ccc(S(=O)(=O)NCCSCCNS(=O)(=O)c2ccc(C)cc2)cc1: > 100 µM (inactive)

Data request: Give its GI50 value. Item: Cc1ccc([N+](=O)[O-])cc1S(=O)(=O)Nc1ccc(C2=NN(c3ccc([N+](=O)[O-])cc3[N+](=O)[O-])C(c3cccs3)C2)cc1 (stereo not given)
Data returned: 15 µM (inactive)

Data request: Give its GI50 value. Item: COC1CC(OS(=O)(=O)c2ccc(C)cc2)C(OC(=O)c2ccccc2)C(C)O1 (stereo not given)
Data returned: > 10 µM (inactive)

Data request: Give its GI50 value. Item: CCOC(=O)CC1=N/C(=N/c2cc(Cl)ccc2Cl)SC1
Data returned: > 100 µM (inactive)

Data request: Give its GI50 value. Item: COc1cc(C2c3cc(OC)c(OC)c(O)c3C(=O)C3CCC(=O)N32)cc(OC)c1OC (stereo not given)
Data returned: > 100 µM (inactive)
